absorption maximum for assorted compounds
# METHOD_NOTES: solvent given as SMILES
# RUN_CONDITIONS: in CC#N

A selection of reference data follows.
# ENTRY_SMILES, TEST_READOUT, RESULT
records = [
    ("CC(=O)Nc1cc2ccc3cccc4ccc(c1)c2c34", "absorption maximum", "334 nm"),
    ("N#Cc1cc(-n2c3ccccc3c3ccccc32)c(-n2c3ccccc3c3ccccc32)cc1C#N", "absorption maximum", "367 nm"),
    ("CCn1c2ccccc2c2cc(/C=C3\\C(=O)c4ccccc4S3(=O)=O)ccc21", "absorption maximum", "442 nm"),
]

Next up:
Ask | # lookup: absorption maximum of CN(C)c1ccc(/C=C/C=C/c2ccc(C#N)cc2)cc1
Reply | 402 nm
